# experiment-description: solvent given as SMILES
# condition-label: in C1CCOC1
Measured log10 of fluorescence lifetime, listed per entry for reference.
A value of 2 here means fluorescence lifetime of 100 in ns, since values are log10.

These solved cases illustrate the format of a correct answer.
{"columns": ["compound-structure-string", "log10 of fluorescence lifetime"],
 "data": [
  ["CN(C)c1ccc(C(=Cc2ccc(/C=C(\\C#N)c3ccccc3)cc2)c2ccc(N(C)C)cc2)cc1", -0.52],
  ["CCC1=C(C)C2=C(C)c3c(C)c(CC)c(C)n3[B-](F)(F)[N+]2=C1C", 0.75],
  ["CCC1(CC)c2ccccc2-c2c1c1c(c3c2C(CC)(CC)c2cc(N(c4ccccc4)c4ccccc4)ccc2-3)C(CC)(CC)c2cc(N(c3ccccc3)c3ccccc3)ccc2-1", 0.28],
  ["CN(C)c1ccc2c(c1)C(=O)NC2=O", 1.14],
  ["CC(C)(C)c1ccc(C2=C(c3ccc(C(C)(C)C)cc3)[Si](c3ccccc3)(c3ccccc3)c3ccccc32)cc1", 0.21],
  ["O=C(O)c1ccc(C(=O)O)c2cc3ccccc3cc12", 1.28]
]}

// Cc1ccc(C2=C3C=CC(c4ccccc4)=[N+]3[B-](F)(F)n3c2ccc3-c2ccccc2)cc1 : log10 of fluorescence lifetime value = 0.15

// CCN(CC)c1ccc(/C=C/c2ccc(-c3ccc(/C=C/c4ccc(N(CC)CC)cc4)s3)s2)cc1 : log10 of fluorescence lifetime value = 0.04

// CN(C)c1ccc(C(=Cc2ccc(/C=C/c3ccc(C#N)cc3)cc2)c2ccc(N(C)C)cc2)cc1 : log10 of fluorescence lifetime value = 0.00
